# protocol notes: Toxicity liver stage against HepG2, at 10uM
# Type: cell-based
# Set-up: test concentration 10 uM, cell line HepG2-A16-CD81EGFP
# experimental conditions: human, HepG2-A16-CD81EGFP cells; read-out: INHIBITION
measurement label: cytotoxicity at 10 µM (%)

[[record]]
molecule = "CC(C)c1nc2n(n1)CC(NCc1nc(-c3ccsc3)no1)CC2 (configuration not stated)"
measurement_label = "cytotoxicity at 10 µM"
unit_info = "%"
observed = -5.39

[[record]]
molecule = "O=C(CN(Cc1cccs1)C1CCS(=O)(=O)C1)NCC1CCCCC1 (configuration not stated)"
measurement_label = "cytotoxicity at 10 µM"
unit_info = "%"
observed = 0.611

[[record]]
molecule = "Cc1cc(C)c2[nH]c(CN3CCCC(N4CCOCC4)C3)cc(=O)c2c1 (configuration not stated)"
measurement_label = "cytotoxicity at 10 µM"
unit_info = "%"
observed = -1.78

[[record]]
molecule = "Cc1ccc(-c2cnnc(N3CCCC3c3nccs3)n2)o1 (configuration not stated)"
measurement_label = "cytotoxicity at 10 µM"
unit_info = "%"
observed = 3.04

[[record]]
molecule = "CCOCc1cnc2n1CCN(C(=O)c1cccc3c1OCCO3)C2C (configuration not stated)"
measurement_label = "cytotoxicity at 10 µM"
unit_info = "%"
observed = -98.2

[[record]]
molecule = "Cc1ccc(-c2nc(CN3CCCCC3Cn3cncn3)no2)cc1 (configuration not stated)"
measurement_label = "cytotoxicity at 10 µM"
unit_info = "%"
observed = -0.403

[[record]]
molecule = "CC(C)c1noc(C(C)N2CCN(Cc3cccnc3)CC2)n1 (configuration not stated)"
measurement_label = "cytotoxicity at 10 µM"
unit_info = "%"
observed = -5.44

[[record]]
molecule = "CC(=O)N(Cc1c(F)cccc1F)C1CCCC1"
measurement_label = "cytotoxicity at 10 µM"
unit_info = "%"
observed = -3.63

[[record]]
molecule = "CCC1=N[C@@]2(CC[C@@H]3CN(Cc4ccccc4C)C[C@@H]32)C(=O)N1"
measurement_label = "cytotoxicity at 10 µM"
unit_info = "%"
observed = 8.4

[[record]]
molecule = "Cc1noc([C@@H]2C[C@H](NC(=O)Nc3cccc(F)c3)CN2C)n1"
measurement_label = "cytotoxicity at 10 µM"
unit_info = "%"
observed = -2.17

[[record]]
molecule = "CC(C)(C)c1ncc(CNc2ccccc2Cn2cncn2)s1"
measurement_label = "cytotoxicity at 10 µM"
unit_info = "%"
observed = 48.7

[[record]]
molecule = "CC(CS(C)(=O)=O)N(C(=O)CCc1ccc(Cl)s1)C1CC1 (configuration not stated)"
measurement_label = "cytotoxicity at 10 µM"
unit_info = "%"
observed = 1.92

[[record]]
molecule = "CNc1nc(CNC(=O)Nc2ccc([S+](C)[O-])c(F)c2)cs1 (configuration not stated)"
measurement_label = "cytotoxicity at 10 µM"
unit_info = "%"
observed = -12.2

[[record]]
molecule = "CC(C)Cn1cnc2ccc(NC(=O)CCCn3cccn3)cc2c1=O"
measurement_label = "cytotoxicity at 10 µM"
unit_info = "%"
observed = -4.06

[[record]]
molecule = "CCc1nc(C2CCCN2Cc2ncc(C)c(OC)c2C)no1 (configuration not stated)"
measurement_label = "cytotoxicity at 10 µM"
unit_info = "%"
observed = 3.3

[[record]]
molecule = "CNC(=O)NC(=O)CN1CCc2c(Br)ccc(F)c2C1"
measurement_label = "cytotoxicity at 10 µM"
unit_info = "%"
observed = -9.3

[[record]]
molecule = "Cc1cccc(CN2CCC3(CCCN(C(=O)CN(C)C)C3)C2=O)n1 (configuration not stated)"
measurement_label = "cytotoxicity at 10 µM"
unit_info = "%"
observed = -3.49

[[record]]
molecule = "Cc1cnn(CCNCC(=O)NCC2(c3ccccc3)CCC2)c1"
measurement_label = "cytotoxicity at 10 µM"
unit_info = "%"
observed = 5.87

[[record]]
molecule = "COc1ccc(CNC2CCC(O)CC2)cc1OCCCC#N (configuration not stated)"
measurement_label = "cytotoxicity at 10 µM"
unit_info = "%"
observed = -2.56

[[record]]
molecule = "COCCNC(=O)C1CN(Cc2cccc(C)n2)Cc2ccnn2C1 (configuration not stated)"
measurement_label = "cytotoxicity at 10 µM"
unit_info = "%"
observed = -79.2

[[record]]
molecule = "CC(C)(C)c1cc(CN2C[C@@H]3CC[C@H]2CN(Cc2cscn2)C3)n[nH]1"
measurement_label = "cytotoxicity at 10 µM"
unit_info = "%"
observed = 5.13

[[record]]
molecule = "CN(Cc1cc(-c2ccccc2)no1)CC1CCCN1c1cccnn1 (configuration not stated)"
measurement_label = "cytotoxicity at 10 µM"
unit_info = "%"
observed = -9.09

